procedure_details: Permeability across human Caco2 cells
Type: ADME, cell-based
measurement_setup: Caco-2, read-out: permeability

{"cpd_smiles": "CC(C)[C@@H](NS(=O)(=O)c1ccc(-c2ccc(OCc3cccc(C#N)c3)cc2)cc1)C(=O)O", "Papp / ×10⁻⁶ cm/s": 0.8}

----------
procedure_details: Solubility of the compound at pH 7.4
Assay type: physicochemical
measurement_setup: buffer

{"cpd_smiles": "CC(C)[C@@H](NS(=O)(=O)c1ccc(-c2ccc(OCc3cccc(C#N)c3)cc2)cc1)C(=O)O", "unit_spec": "µg/mL", "censor_symbol": "=", "solubility": 53}
{"cpd_smiles": "CC(C)[C@@H](NS(=O)(=O)c1ccc(-c2ccc(OCc3ccccc3C#N)cc2)cc1)C(=O)O", "unit_spec": "µg/mL", "censor_symbol": ">", "solubility": 100}

----------
procedure_details: Bioavailability in Sprague-Dawley rat
Format: ADME, organism-based
measurement_setup: in vivo

{"cpd_smiles": "CC(C)[C@@H](NS(=O)(=O)c1ccc(-c2ccc(OCc3ccccc3C#N)cc2)cc1)C(=O)O", "unit_spec": "%", "bioavailability": 23}

----------
Below are compounds with their IC50 as measured on Collagenase 3 (Homo sapiens).

{"compound": "CC(C)[C@@H](NS(=O)(=O)c1ccc(-c2ccc(OCc3cccc(C(F)(F)F)n3)cc2)cc1)C(=O)O", "unit_spec": "nM", "IC50": 4300}
{"compound": "Cc1cc(COc2ccc(-c3ccc(S(=O)(=O)N[C@@H](C(=O)O)C(C)C)cc3)cc2)c2ccccc2n1", "unit_spec": "nM", "IC50": 9.6}
{"compound": "CC(C)[C@@H](NS(=O)(=O)c1ccc(-c2ccc(OCc3ccc(C(F)(F)F)cc3)cc2)cc1)C(=O)O", "unit_spec": "nM", "IC50": 2}
{"compound": "CC(C)[C@@H](NS(=O)(=O)c1ccc(-c2ccc(OCc3ccc4ccccc4c3)cc2)cc1)C(=O)O", "unit_spec": "nM", "IC50": 1.4}
{"compound": "CC(C)[C@@H](NS(=O)(=O)c1ccc(-c2ccc(OCc3ccccc3C#N)cc2)cc1)C(=O)O", "unit_spec": "nM", "IC50": 4.6}
{"compound": "CC(C)[C@@H](NS(=O)(=O)c1ccc(-c2ccc(OCc3cccc(F)c3)cc2)cc1)C(=O)O", "unit_spec": "nM", "IC50": 2.2}
{"compound": "CC(C)[C@@H](NS(=O)(=O)c1ccc(-c2ccc(OCc3ccccc3C(F)(F)F)cc2)cc1)C(=O)O", "unit_spec": "nM", "IC50": 24700}
{"compound": "CC(C)[C@@H](NS(=O)(=O)c1ccc(-c2ccc(OCc3cccc(C(=O)O)c3)cc2)cc1)C(=O)O", "unit_spec": "nM", "IC50": 2.7}
{"compound": "Cc1c(COc2ccc(-c3ccc(S(=O)(=O)N[C@@H](C(=O)O)C(C)C)cc3)cc2)oc2ccccc12", "unit_spec": "nM", "IC50": 4}
{"compound": "CC(C)[C@@H](NS(=O)(=O)c1ccc(-c2ccc(OCc3cccc(C(F)(F)F)c3)cc2)cc1)C(=O)O", "unit_spec": "nM", "IC50": 3.5}
{"compound": "CC(Oc1ccc(-c2ccc(S(=O)(=O)N[C@@H](C(=O)O)C(C)C)cc2)cc1)c1cccc(C(F)(F)F)c1 (stereo not given in full)", "unit_spec": "nM", "IC50": 12}
{"compound": "Cc1cc(COc2ccc(-c3ccc(S(=O)(=O)N[C@@H](C(=O)O)C(C)C)cc3)cc2)ccn1", "unit_spec": "nM", "IC50": 0.7}
{"compound": "CC(C)[C@@H](NS(=O)(=O)c1ccc(-c2ccc(OCc3ccnc(C(F)(F)F)c3)cc2)cc1)C(=O)O", "unit_spec": "nM", "IC50": 1}
{"compound": "CC(C)[C@@H](NS(=O)(=O)c1ccc(-c2ccc(OCc3ccccc3)cc2)cc1)C(=O)O", "unit_spec": "nM", "IC50": 5.6}
{"compound": "CC(C)[C@@H](NS(=O)(=O)c1ccc(-c2ccc(OCc3ccnc4ccccc34)cc2)cc1)C(=O)O", "unit_spec": "nM", "IC50": 5.2}

----------
procedure_details: Clearance in Sprague-Dawley rat
Type: ADME, organism-based
measurement_setup: in vivo
recorded_endpoint: clearance

{"cpd_smiles": "CC(C)[C@@H](NS(=O)(=O)c1ccc(-c2ccc(OCc3ccccc3C#N)cc2)cc1)C(=O)O", "measured_result": "1.07 mL/min/kg"}

----------
measured_on: UniProt:O75173
Sequence (O75173 whole entry): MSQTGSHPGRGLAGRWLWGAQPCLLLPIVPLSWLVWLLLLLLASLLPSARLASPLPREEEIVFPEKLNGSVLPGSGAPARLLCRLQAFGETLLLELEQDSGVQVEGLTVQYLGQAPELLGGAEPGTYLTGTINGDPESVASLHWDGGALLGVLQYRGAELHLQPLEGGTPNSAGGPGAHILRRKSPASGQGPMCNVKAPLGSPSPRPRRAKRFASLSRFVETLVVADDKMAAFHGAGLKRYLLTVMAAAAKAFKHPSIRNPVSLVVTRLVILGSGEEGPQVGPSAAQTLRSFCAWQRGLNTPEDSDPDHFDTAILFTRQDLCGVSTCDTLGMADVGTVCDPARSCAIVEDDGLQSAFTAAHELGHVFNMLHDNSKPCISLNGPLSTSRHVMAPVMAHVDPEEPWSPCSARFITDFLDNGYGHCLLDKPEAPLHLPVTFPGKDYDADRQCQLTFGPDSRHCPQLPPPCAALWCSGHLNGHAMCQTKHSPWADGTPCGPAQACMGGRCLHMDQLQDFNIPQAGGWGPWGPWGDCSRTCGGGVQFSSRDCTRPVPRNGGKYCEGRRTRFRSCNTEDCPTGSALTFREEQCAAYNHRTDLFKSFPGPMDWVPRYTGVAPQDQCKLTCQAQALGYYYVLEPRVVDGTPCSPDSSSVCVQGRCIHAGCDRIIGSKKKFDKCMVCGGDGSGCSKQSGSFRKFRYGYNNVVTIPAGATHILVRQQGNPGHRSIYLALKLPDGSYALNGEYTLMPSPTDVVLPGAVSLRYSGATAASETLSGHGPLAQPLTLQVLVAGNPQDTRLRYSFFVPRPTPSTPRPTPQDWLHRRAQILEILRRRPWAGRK

{"cpd_smiles": "CC(C)[C@@H](NS(=O)(=O)c1ccc(-c2ccc(OCc3ccccn3)cc2)cc1)C(=O)O", "IC50, nM": 33000}
{"cpd_smiles": "Cc1cc(COc2ccc(-c3ccc(S(=O)(=O)N[C@@H](C(=O)O)C(C)C)cc3)cc2)ccn1", "IC50, nM": 2400}
{"cpd_smiles": "CC(C)[C@@H](NS(=O)(=O)c1ccc(-c2cccc(C(N)=O)c2)cc1)C(=O)O", "IC50, nM": 8400}
{"cpd_smiles": "CNC(=O)Oc1ccc(-c2ccc(S(=O)(=O)N[C@@H](C(=O)O)C(C)C)cc2)cc1", "IC50, nM": 50000}
{"cpd_smiles": "CC(C)[C@@H](NS(=O)(=O)c1ccc(-c2ccc(OCc3cccc(Br)c3)cc2)cc1)C(=O)O", "IC50, nM": 420}
{"cpd_smiles": "CC(C)[C@@H](NS(=O)(=O)c1ccc(-c2ccc(OCc3cccc([N+](=O)[O-])c3)cc2)cc1)C(=O)O", "IC50, nM": 540}
{"cpd_smiles": "CC(C)[C@@H](NS(=O)(=O)c1ccc(-c2cccc(CO)c2)cc1)C(=O)O", "IC50, nM": 2100}
{"cpd_smiles": "CC(C)[C@@H](NS(=O)(=O)c1ccc(-c2ccc(OCc3cccnc3)cc2)cc1)C(=O)O", "IC50, nM": 30000}
{"cpd_smiles": "CC(=O)NCc1ccc(-c2ccc(S(=O)(=O)N[C@@H](C(=O)O)C(C)C)cc2)cc1", "IC50, nM": 420}
{"cpd_smiles": "CC(C)[C@@H](NS(=O)(=O)c1ccc(-c2ccc(OCc3ccc4ccccc4n3)cc2)cc1)C(=O)O", "IC50, nM": 10600}
{"cpd_smiles": "CC(C)[C@@H](NS(=O)(=O)c1ccc(-c2ccc(OCc3ccnc(C(F)(F)F)c3)cc2)cc1)C(=O)O", "IC50, nM": 2200}
{"cpd_smiles": "CC(C)[C@@H](NS(=O)(=O)c1ccc(-c2ccc(OCc3cccc(C(F)(F)F)n3)cc2)cc1)C(=O)O", "IC50, nM": 4700}
{"cpd_smiles": "CC(C)[C@@H](NS(=O)(=O)c1ccc(-c2ccc(OCc3ccccc3C(F)(F)F)cc2)cc1)C(=O)O", "IC50, nM": 9100}
{"cpd_smiles": "CC(C)[C@@H](NS(=O)(=O)c1ccc(-c2ccc(OCc3ccc(C#N)cc3)cc2)cc1)C(=O)O", "IC50, nM": 1400}
{"cpd_smiles": "CC(C)[C@@H](NS(=O)(=O)c1ccc(-c2ccc(OCc3cccc(Cl)c3)cc2)cc1)C(=O)O", "IC50, nM": 400}
{"cpd_smiles": "CC(C)[C@@H](NS(=O)(=O)c1ccc(-c2ccc(OCc3cccc4ccccc34)cc2)cc1)C(=O)O", "IC50, nM": 1400}
{"cpd_smiles": "COC(=O)c1cccc(COc2ccc(-c3ccc(S(=O)(=O)N[C@@H](C(=O)O)C(C)C)cc3)cc2)c1", "IC50, nM": 760}
